Settings: human gut metagenome, 24 h, 2 µM; also: call rule not given here
value-kind: Bacterial Biotransformation

# molecule, val
rows = [
    ("CC(C)c1c(CN(C)C(C)Cc2ccccc2)n(C)n(-c2ccccc2)c1=O (stereo not drawn) [FAMPROFAZONE]", "Compound metabolized"),
    ("CCCCC(=O)O[C@]1(C(=O)CO)[C@@H](C)C[C@H]2[C@@H]3CCC4=CC(=O)C=C[C@]4(C)[C@@]3(F)[C@@H](O)C[C@@]21C [BETAMETHASONE VALERATE]", "Compound metabolized"),
]

* * *

Conditions: human gut metagenome, 24 h, 2 µM
value-kind: Bacterial Biotransformation

Some entries whose results are on file:
# molecule, val
data = [
    ("C=C[C@H]1CN2CC[C@H]1C[C@H]2[C@H](O)c1ccnc2ccc(OC)cc12.C=C[C@H]1CN2CC[C@H]1C[C@H]2[C@H](O)c1ccnc2ccc(OC)cc12.O.O.O=S(=O)(O)O [QUININE SULFATE]", "Compound NOT metabolized"),
    ("C#C[C@]1(OC(C)=O)CC[C@H]2[C@@H]3CCC4=C[C@@H](OC(C)=O)CC[C@@H]4[C@H]3CC[C@@]21C [ETHYNODIOL DIACETATE]", "Compound metabolized"),
    ("COc1cc(NC(C)CCCN)c2ncccc2c1.O=P(O)(O)O.O=P(O)(O)O (stereo unspecified) [PRIMAQUINE PHOSPHATE]", "Compound NOT metabolized"),
    ("CC(C)NCC(O)COc1ccc(CC(N)=O)cc1 (stereo unspecified)", "Compound NOT metabolized"),
    ("C#C[C@]1(OC(C)=O)CC[C@H]2[C@@H]3CCC4=C/C(=N/O)CC[C@@H]4[C@H]3CC[C@@]21CC [NORGESTIMATE]", "Compound NOT metabolized"),
    ("CC(=O)O[C@H]1C(=O)[C@@]2(C)[C@H]([C@H](OC(=O)c3ccccc3)[C@]3(O)C[C@H](OC(=O)[C@H](O)[C@@H](NC(=O)c4ccccc4)c4ccccc4)C(C)=C1C3(C)C)[C@]1(OC(C)=O)CO[C@@H]1C[C@@H]2O", "Compound NOT metabolized"),
    ("O=P1(N(CCCl)CCCl)NCCCO1 (stereo unspecified) [CYCLOPHOSPHAMIDE ANHYDROUS]", "Compound metabolized"),
    ("COc1ccc(CN2CCNCC2)c(OC)c1OC.Cl.Cl [TRIMETAZIDINE DIHYDROCHLORIDE]", "Compound NOT metabolized"),
    ("CCCN(CCC)CCc1cccc2c1CC(=O)N2", "Compound NOT metabolized"),
    ("C[C@]12C=CC(=O)C=C1CC[C@@H]1[C@@H]2C(=O)C[C@@]2(C)[C@H]1CC[C@]2(O)C(=O)CO", "Compound metabolized"),
]

Provide the reported Bacterial Biotransformation of each entry below, same order.
1. Clc1cccc(Cl)c1N=C1NCCN1
2. CC#C[C@]1(O)CC[C@H]2[C@@H]3CCC4=CC(=O)CCC4=C3[C@@H](c3ccc(N(C)C)cc3)C[C@@]21C
3. CN1CCN(C2=Nc3ccccc3Oc3ccc(Cl)cc32)CC1.O=C(O)CCC(=O)O [LOXAPINE SUCCINATE]
4. Nc1nc(N)nc(-c2cc(Cl)ccc2Cl)n1.O=C(O)/C=C\C(=O)O [IRSOGLADINE MALEATE]
5. COc1ccc2c(c1)c(CC(=O)O)c(C)n2C(=O)c1ccc(Cl)cc1
6. C[C@@H](c1ncncc1F)[C@](O)(Cn1cncn1)c1ccc(F)cc1F

Out:
["Compound NOT metabolized", "Compound NOT metabolized", "Compound NOT metabolized", "Compound NOT metabolized", "Compound metabolized", "Compound metabolized"]

* * *

Conditions: human gut metagenome, 24 h, 2 µM
value-kind: Bacterial Biotransformation

Some entries whose results are on file:
# compound, Bacterial Biotransformation
records = [
    ("CN(CCOc1ccc(CC2SC(=O)NC2=O)cc1)c1ccccn1.O=C(O)/C=C\\C(=O)O (configuration not stated) [ROSIGLITAZONE MALEATE]", "Compound NOT metabolized"),
    ("CC(C)(C)NCC(O)c1cc(Cl)c(N)c(Cl)c1 (configuration not stated) [CLENBUTEROL]", "Compound NOT metabolized"),
    ("CN1CCN(C2=Nc3ccccc3Oc3ccc(Cl)cc32)CC1.O=C(O)CCC(=O)O [LOXAPINE SUCCINATE]", "Compound NOT metabolized"),
    ("CCN(CC)CCNC(=O)c1ccc(NC(C)=O)cc1 [ACECAINIDE]", "Compound NOT metabolized"),
    ("CCN(CC)C(=O)C1(c2ccccc2)CC1CN (configuration not stated)", "Compound NOT metabolized"),
]

Provide the reported Bacterial Biotransformation of each entry below, same order.
1. CC#CCn1c(N2CCC[C@@H](N)C2)nc2c1c(=O)n(Cc1nc(C)c3ccccc3n1)c(=O)n2C [LINAGLIPTIN]
2. CCN1CCCC1CNC(=O)c1cc(S(=O)(=O)CC)c(N)cc1OC (configuration not stated) [AMISULPRIDE]
3. COc1ccc(CN2CCNCC2)c(OC)c1OC.Cl.Cl [TRIMETAZIDINE DIHYDROCHLORIDE]
4. COc1cc2nc(N3CCN(C(=O)C4COc5ccccc5O4)CC3)nc(N)c2cc1OC.CS(=O)(=O)O (configuration not stated) [DOXAZOSIN MESYLATE]

Out:
1. Compound NOT metabolized
2. Compound NOT metabolized
3. Compound NOT metabolized
4. Compound NOT metabolized

Provide the reported Bacterial Biotransformation of each entry below, same order.
1. CCN(C(C)=O)c1cccc(-c2ccnc3c(C#N)cnn23)c1 [ZALEPLON]
2. CC(C)C[C@H]1C(=O)N2CCC[C@H]2[C@]2(O)O[C@](NC(=O)[C@@H]3C=C4c5cccc6[nH]c(Br)c(c56)C[C@H]4N(C)C3)(C(C)C)C(=O)N12.CS(=O)(=O)O [BROMOCRIPTINE MESYLATE]

Out:
Compound metabolized
Compound metabolized

In: For the compound shown here, CC12CC3CC(C)(C1)CC(N)(C3)C2 [MEMANTINE] , give the reported Bacterial Biotransformation.
Out: Compound NOT metabolized

* * *

Details: human gut metagenome, 24 h, 2 µM
value-kind: Bacterial Biotransformation

Some entries whose results are on file:
# compound, Bacterial Biotransformation
measured = [
    ("O=C1CC2(CCCC2)CC(=O)N1CCCCN1CCN(c2ncccn2)CC1 [BUSPIRONE]", "Compound NOT metabolized"),
    ("CN1CCN2c3ccccc3Cc3ccccc3C2C1 (configuration not stated) [MIANSERIN]", "Compound NOT metabolized"),
    ("c1ccc2[nH]c(-c3cscn3)nc2c1 [THIABENDAZOLE]", "Compound NOT metabolized"),
    ("CC(C)c1c(CN(C)C(C)Cc2ccccc2)n(C)n(-c2ccccc2)c1=O (configuration not stated) [FAMPROFAZONE]", "Compound metabolized"),
    ("CC(=O)Oc1ccc(C(c2ccc(OC(C)=O)cc2)c2ccccn2)cc1 [BISACODYL]", "Compound metabolized"),
]

Provide the reported Bacterial Biotransformation of each entry below, same order.
1. CC(C)c1nc(N(C)S(C)(=O)=O)nc(-c2ccc(F)cc2)c1/C=C/[C@@H](O)C[C@@H](O)CC(=O)[O-].CC(C)c1nc(N(C)S(C)(=O)=O)nc(-c2ccc(F)cc2)c1/C=C/[C@@H](O)C[C@@H](O)CC(=O)[O-].[Ca+2] [ROSUVASTATIN CALCIUM]
2. CC(C)(C)NCC(O)c1cc(Cl)c(N)c(Cl)c1 (configuration not stated) [CLENBUTEROL]
3. COC(=O)C(c1ccccc1)C1CCCCN1 (configuration not stated) [METHYLPHENIDATE]
4. CC(C)(C)NC(=O)[C@H]1CC[C@H]2[C@@H]3CC[C@H]4NC(=O)C=C[C@]4(C)[C@H]3CC[C@]12C [FINASTERIDE]

Out:
Compound metabolized
Compound NOT metabolized
Compound NOT metabolized
Compound NOT metabolized

Provide the reported Bacterial Biotransformation of each entry below, same order.
1. CN(C)C(=O)Oc1cc(OC(=O)N(C)C)cc(C(O)CNC(C)(C)C)c1 (configuration not stated) [BAMBUTEROL]
2. Br.CN1CCC[C@@H]1Cc1c[nH]c2ccc(CCS(=O)(=O)c3ccccc3)cc12 [ELETRIPTAN HYDROBROMIDE]
3. O=C(CCCN1CCC2(CC1)C(=O)NCN2c1ccccc1)c1ccc(F)cc1 [SPIPERONE]

Out:
["Compound NOT metabolized", "Compound NOT metabolized", "Compound NOT metabolized"]

* * *

Experiment: The drug is tested on WLS-007 corresponding to human gut metagenome with ENA study accession number: PRJEB37062 and ENA sample accession number: ERS12561742 for biotransformation under anaerobic condition. The drug concentrations were measured over 9 timepoints collected between 0 and 24 hours of incubation by liquid-chromatography-coupled mass spectrometry (LC–MS)
Details: 2 µM
value-kind: Bacterial Biotransformation

Some entries whose results are on file:
# compound, Bacterial Biotransformation
measured = [
    ("CCCN(CCC)CCc1cccc2c1CC(=O)N2 [ROPINIROLE]", "Compound NOT metabolized"),
    ("COc1ccnc(C[S+]([O-])c2nc3ccc(OC(F)F)cc3[nH]2)c1OC (stereo not drawn) [PANTOPRAZOLE]", "Compound metabolized"),
    ("CCS(=O)(=O)CCn1c([N+](=O)[O-])cnc1C [TINIDAZOLE]", "Compound metabolized"),
    ("CC(=O)OCC(=O)NCCCOc1cccc(CN2CCCCC2)c1 [ROXATIDINE ACETATE]", "Compound metabolized"),
    ("CN(C)CCc1c[nH]c2ccc(CS(=O)(=O)N3CCCC3)cc12 [ALMOTRIPTAN]", "Compound NOT metabolized"),
]

Provide the reported Bacterial Biotransformation of each entry below, same order.
1. CC(NC(C)(C)C)C(=O)c1cccc(Cl)c1 (stereo not drawn) [BUPROPION]
2. CC(C)C[C@H]1C(=O)N2CCC[C@H]2[C@]2(O)O[C@](NC(=O)[C@@H]3C=C4c5cccc6[nH]c(Br)c(c56)C[C@H]4N(C)C3)(C(C)C)C(=O)N12.CS(=O)(=O)O [BROMOCRIPTINE MESYLATE]

Out:
["Compound NOT metabolized", "Compound metabolized"]

In: For the compound shown here, C[N+]12CCC(CC1)C(OC(=O)C(O)(c1ccccc1)c1ccccc1)C2.[Br-] (stereo not drawn) [CLIDINIUM BROMIDE] , give the reported Bacterial Biotransformation.
Out: Compound NOT metabolized
